# System: RPMI-8226
# TEST NAME: NCI tumour cell line growth inhibition, 48 h
The source made the active and inactive calls. Cut-off read from the data, not from the text of the source: active = GI50 up to about 1.1 µM and inactive = higher. Residues, ends and D or L forms follow the SMILES beside them. *: point of attachment. Boc = CC(C)(C)OC(=O)*; OBn = c1ccc(CO*)cc1
Reported values of GI50 for individual entries
REPORTED ENDPOINT: GI50

INSERT INTO results (molecule, result) VALUES
  ('CCOC(=O)c1c(NC(=O)c2ccccc2)sc2c1CCCC2', '> 100 µM (inactive)'),
  ('C=CCCC1CCCCNC1=S (centres undefined)', '> 10 µM (inactive)'),
  ('CCOC(=O)C(=Cc1ccccc1Cl)C(=O)OCC', '1.56 µM (inactive)'),
  ('c1cncc(CNCc2cccnc2)c1', '> 100 µM (inactive)'),
  ('Cc1nc(-n2[nH]c(C)c(CCO)c2=O)[nH]c(=O)c1CCO', '> 100 µM (inactive)'),
  ('COC1OC(C)C(OCc2ccccc2)C(OS(=O)(=O)c2ccc(C)cc2)C1OS(=O)(=O)c1ccc(C)cc1 (centres undefined)', '> 100 µM (inactive)'),
  ('CC(=O)N(C(C)=O)C1=C2c3ccccc3N(S(=O)(=O)c3ccccc3)C2n2c(=O)n(-c3ccccc3)c(=O)n2C1 (centres undefined)', '12.7 µM (inactive)'),
  ('CC(C)C(NC(=O)C(Cc1ccccc1)NC(=O)OC(C)(C)C)C(=O)NCC(=O)OCc1ccccc1 (stereo not drawn) (Boc-Phe-Val-Gly-OBn; configuration not given here)', '16.5 µM (inactive)'),
  ('CC1CC[C@@]2(OC1)OC1C[C@H]3[C@@H]4CCC5CC(O)CC[C@]5(C)[C@H]4C/C(=N\N(C)C)[C@]3(C)C1[C@@H]2C (some centres undefined)', '26.9 µM (inactive)'),
  ('O=C(c1ccc([N+](=O)[O-])cc1)C(Br)C(Br)c1ccnc2ccccc12 (centres undefined)', '2.23 µM (inactive)'),
  ('Nc1ccc(/C=C/c2ccnc3ccccc23)cc1', '15.6 µM (inactive)'),
  ('C/C(=N/NC(=O)c1ccncc1)c1ccc(NC(=O)C(=O)Nn2c(S)nc3ccccc3c2=O)cc1', '> 100 µM (inactive)'),
  ('O=C1Sc2cc3ccccc3cc2C(=O)Sc2ccc(Br)cc21', '1.65 µM (inactive)'),
  ('CN(C)Nc1cc(=O)[nH]c(=O)[nH]1', '> 100 µM (inactive)'),
  ('COc1cc(/C=N/n2c(-c3ccccc3)nn(C(C)=O)c2=O)cc(OC)c1OC', '1.49 µM (inactive)'),
  ('Nc1cc2c3c(c1)Oc1cc(N)cc4c1C3c1c(cc(N)cc1O4)O2', '14.7 µM (inactive)'),
  ('COc1cc(C2=NNC(=O)c3ccccc3N2c2nc(-c3cccs3)nc3ccc(Br)cc23)cc(OC)c1OC', '2.42 µM (inactive)'),
  ('CCOC1=C2C(C)(CCC3[C@@]4(C)C=CC(=O)C(C)(C)C4CC(O)[C@@]23C)C(c2ccoc2)C1=O (some centres undefined)', '15.6 µM (inactive)'),
  ('CCCCOC(=O)NC(=O)c1cn(CCCOC(=O)NCCCCCCNC(=O)OCCCn2cc(C(=O)NC(=O)OCCCC)c(=O)[nH]c2=O)c(=O)[nH]c1=O', '> 100 µM (inactive)');

---

# Tested on: UO-31
# TEST NAME: NCI tumour cell line growth inhibition, 48 h
Calls of active or inactive are those of the source. No stated cut-off is given here; in the data, active = GI50 up to about 1.1 µM and inactive = higher.
Classes used: active, inactive

INSERT INTO results (molecule, assayed_system, label_value) VALUES
  ('O=C1Cc2c(-c3ccc(Cl)cc3)cc(-c3ccccc3)nc2-c2ccccc2N1', 'UO-31', 'inactive'),
  ('CC(C)(C)OC(=O)NCCNC(=O)CN(CC(=O)O)C1CCCCC1N(CC(=O)O)CC(=O)O (centres undefined)', 'UO-31', 'inactive'),
  ('C[C@@H]1OC(=O)C[C@H]2CC(=O)N(CCc3cn(S(=O)(=O)C(F)(F)F)c4ccccc34)C[C@@H]21', 'UO-31', 'inactive'),
  ('C=CCNC1=C2C[C@@H](C)C[C@H](OC)[C@H](O)[C@@H](C)/C=C(\C)[C@H](OC(N)=O)[C@@H](OC)/C=C\C=C(/C)C(=O)NC(=CC1=O)C2=O', 'UO-31', 'active');

---

Reported values of GI50 for individual entries
# Tested on: MDA-MB-231
# TEST NAME: NCI tumour cell line growth inhibition, 48 h
Active and inactive are the calls of the source. Rule as the data show it: active = GI50 up to about 1.1 µM and inactive = higher.
REPORTED ENDPOINT: GI50

INSERT INTO assay_data (compound, reported_endpoint, result) VALUES
  ('Clc1ccc2c(c1)CC1C[N+]3=C(CCCCC3)C1=C2 (stereo not drawn)', 'GI50', '33 µM (inactive)'),
  ('CN(C)C/C=C(/c1ccc(Br)cc1)c1cccnc1', 'GI50', '32.7 µM (inactive)'),
  ('COC(=O)CCC(=O)c1ccc2c(c1)CC1(C2)Cc2ccc(C(=O)CCC(=O)OC)cc2C1', 'GI50', '60.1 µM (inactive)'),
  ('COc1ccc(/C(C)=C2\CCCN(Cc3ccccc3)C2)cc1', 'GI50', '21.4 µM (inactive)'),
  ('COC(=O)CCC(C)C1CCC2C3C(C[C@H](OC(C)=O)[C@]12C)[C@@]1(C)CCC2(C[C@H]1C[C@H]3OC(C)=O)OOC1(CC[C@]3(C)C4C[C@H](OC(C)=O)[C@]5(C)C(C(C)CCC(=O)OC)CCC5C4[C@H](OC(C)=O)C[C@@H]3C1)OO2 (stereo partly drawn)', 'GI50', '> 100 µM (inactive)'),
  ('Cc1ccc(S(=O)(=O)Nn2c(S)c(C#N)c(-c3ccc(Cl)cc3)c(C#N)c2=O)cc1', 'GI50', '36.2 µM (inactive)'),
  ('Cn1c(COC(=O)Nc2ccccc2)c(COC(=O)Nc2ccccc2)c2ccc3cc(Cl)c(Cl)cc3c21', 'GI50', '3.33 µM (inactive)'),
  ('CN1C(=O)C(/C=N/NC(=O)c2cccnc2)C(N)N(C)C1=O (stereo not drawn)', 'GI50', '> 100 µM (inactive)'),
  ('CCCCCCCCCCCCCCCC(=O)ON1C(=S)NC(C)(c2ccccc2)C1=S (stereo not drawn)', 'GI50', '> 100 µM (inactive)'),
  ('CCCCOC(=O)C(=O)C(CCC(=O)c1ccc(C)cc1)C(=O)C=C(C)C (stereo not drawn)', 'GI50', '> 100 µM (inactive)'),
  ('CCOC(=O)[C@@H]1C[C@@H]1c1ccc(O)c(O)c1', 'GI50', '11 µM (inactive)'),
  ('NC(CSCc1ccc(I)cc1)C(=O)O (stereo not drawn)', 'GI50', '> 100 µM (inactive)'),
  ('COc1ccccc1CC(=O)C(O)(C(F)(F)F)C(F)(F)F', 'GI50', '> 100 µM (inactive)'),
  ('COC(=O)c1ccc(C)cc1CC1Cc2cccc(C)c2C1=O (stereo not drawn)', 'GI50', '7.1 µM (inactive)'),
  ('COC(=O)[C@]1(C)CCC[C@]2(C)[C@H]3CC[C@]4(C(C)C)OO[C@@H](O4)[C@]34O[C@@H]4C[C@H]21', 'GI50', '4.11 µM (inactive)'),
  ('CCCCOC(=O)NC(Nc1cccc(C(F)(F)F)c1)(C(F)(F)F)C(F)(F)F', 'GI50', '> 100 µM (inactive)'),
  ('CNC(=S)/C(=N\Nc1[nH]cnc1C(N)=O)C(N)=S', 'GI50', '2.12 µM (inactive)'),
  ('COc1ccc(CCNC(=O)CCCCCO)cc1OC', 'GI50', '> 100 µM (inactive)'),
  ('Cc1ccc([N+](=O)[O-])cc1/N=N/C(=O)NNc1cc([N+](=O)[O-])ccc1C', 'GI50', '15.5 µM (inactive)'),
  ('CC1=C(C(N)=O)C(c2ccncc2)C(C#N)C(=O)N1 (stereo not drawn)', 'GI50', '> 100 µM (inactive)'),
  ('O=C1CC(c2ccccc2)[S+]([O-])c2ccccc2N1 (stereo not drawn)', 'GI50', '> 100 µM (inactive)'),
  ('COc1ccccc1NC(=S)N/N=C/c1c(C)n(C)n(-c2ccccc2)c1=O', 'GI50', '> 100 µM (inactive)'),
  ('Fc1c(F)c(F)c(CSc2nc3ccccc3[nH]2)c(F)c1F', 'GI50', '> 100 µM (inactive)'),
  ('COC(=O)C(Cc1ccccc1)NP(=O)(O)OCC1OC(n2cc(Br)c(=O)[nH]c2=O)CC1O (stereo not drawn)', 'GI50', '> 100 µM (inactive)'),
  ('CCOC(=O)c1nc2cc(C(F)(F)F)ccc2nc1Oc1ccc(F)cc1', 'GI50', '> 100 µM (inactive)'),
  ('C#CC(O)/C=C/CCCCCCC#CC/C=C\CC#CCCCCCC/C=C/C(O)C#C (stereo not drawn)', 'GI50', '2.99 µM (inactive)'),
  ('CCOC(=O)c1csc(NC(=O)CCCC#N)n1', 'GI50', '> 100 µM (inactive)'),
  ('COc1ccc2c(C)cc(N/N=C/c3sccc3C)nc2c1', 'GI50', '1.43 µM (inactive)'),
  ('S=C1NC2=C(COC/C2=C\c2ccccc2Cl)C(c2ccccc2Cl)N1 (stereo not drawn)', 'GI50', '> 100 µM (inactive)'),
  ('COc1ccc([C@H]2C=[N+]([O-])O[C@H](OC3CCCC3)[C@@H]2OC(C)=O)cc1OC', 'GI50', '32.7 µM (inactive)'),
  ('CO[C@]12CC(=O)C3(C(C[C@H]4CC5CC[C@H]6C[C@@H](OC(C)=O)CC[C@]6(OC(C)=O)C5C[C@@]43C)C1)C1C[C@H]3[C@@H]4CC[C@H]5C[C@@H](OC(C)=O)CC[C@]5(OC(C)=O)[C@H]4CC[C@]3(C)C12 (stereo partly drawn)', 'GI50', '> 100 µM (inactive)'),
  ('CC1=CC[C@@H]2[C@@H](CC[C@@]2(C)O)C(C)(C)[C@H]1CC[C@@H]1[C@@]2(C)CC[C@@H](O)C(C)(C)O[C@@H]2CC[C@]1(C)O', 'GI50', '17.5 µM (inactive)'),
  ('CCOC(=O)C(Cc1ccc2c(c1)CCC2)Cc1ccc2c(c1)CCC2', 'GI50', '> 100 µM (inactive)'),
  ('CN1C(NCCO)=NS(=O)(=O)c2ccccc21', 'GI50', '> 100 µM (inactive)'),
  ('Cc1c(Cl)cccc1NC(=O)/C=C/c1ccccc1', 'GI50', '17.7 µM (inactive)'),
  ('Cn1c(=O)c(Br)c(C=O)n(CCO[N+](=O)[O-])c1=O', 'GI50', '2.53 µM (inactive)'),
  ('O=C(O)c1nc2nc(Cl)c(Cl)nc2[nH]1', 'GI50', '> 100 µM (inactive)'),
  ('Cc1ccc(N(C=O)c2c([N+](=O)[O-])cc([N+](=O)[O-])c3c2=[N+]([O-])CN=3)cc1', 'GI50', '18.5 µM (inactive)');
